target: T1, human LILRB4 (human, UniProt Q8NHJ6 22-448); experiment: FACS, 293F-hLILRB4 cells
T1 construct: whole, on cells; also called hLILRB4
Exercise: state measured EC50 for each of the binders provided.
Numbers only, in nM.

In the examples that follow, each entry is paired with its recorded EC50.
binder: ch2-H1-D7-E5-D5 (antibody, V domains shown) VH: EVHLVESGGGLVQPGGSRKLSCAASGFTFSSFGMHWVRQPPEKGLEWVAYISSGSSSIYYADTVKGRFTISRDNPKNTLFLQMTSLRSEDTAMYYCARGTGTGAMDYWGQGTSVTVSS VL: DIQMTQTTSSLSASLGDRVTISCRTSQDISNYLNWYQQKPDGTVKLLIYYTSKLHSGVPSRFSGSGSGTDYSLTISNLDQEDIATYFCQQGNTLPWTFGGGTKLEIK
readout label: EC50
unit string: nM
measured result: 1.6

binder: ch36-F4-H1-D9 (antibody, V domains shown) VH: EVKLLESGGGLVQPGGSLKLSCAASGFDFSRYWMIWVRQAPEKGLEWIGEINPDSSTINYTPSLKDKFIISRDNAKNTLYLQMSKVRSEDTALYYCARPYYRYDVGYFDVWGAGTTVTVSS VL: DIVMTQAPKVLLVSAGDRVTISCKASQSVSNAVVWYQQKPGQSPKLLIFYASNRYTGVPDRFTGSGYGTDFTFSISTVQAEDLAVYFCQQDYSSPWTFGGGTKLEIK
readout label: EC50
unit string: nM
measured result: 1.99

binder: ch10-H9-E3-G3 (antibody, V domains shown) VH: EVQRVESGGGLVQPGGSRKLSCAASGFTFSSFGMHWVRQAPEKGLEWVAYISSGSSAMYYADTVKGRFTISRDNPKNTLFLQMTSLRSEDTAMYYCARSDGKGAMDYWGQGTSVTVSS VL: DIQMTQTTSSLSASLGDRVTISCRASQDISNYLNWYQQKPDGTVKLLVYYTSRLHSGVPSRFSGSGSGTDYSLTISNLEQEDIATYFCQQGNTLPWTFGGGTKLEIK
readout label: EC50
unit string: nM
measured result: 1.41

Attention now turns to another entry.
For the binder shown here, IO-202 (antibody, V domains shown) VH: EVQLLESGGGLVQPGGSLRLSCAASGIDFSNHYYMYWVRQAPGKGLEWIGSIFSGDSASTYYADSAKGRFTISRDNSKNTLYLQMNSLRAEDTAVYYCARGMSTNDWASDLWGQGTLVTVSS VL: DIQMTQSPSSLSASVGDRVTITCQASESINSIYLAWYQQKPGKAPKLLIYRASTLASGVPSRFSGSGSGTDFTLTISSLQPEDFATYYCQQSYDWGDVENTFGGGTKVEIK , give the reported EC50.
0.016
